Target: T1, human VEGF C (human, UniProt P49767 103-227, limits assumed)
T1 construct: also called hVEGFC; hVEGF C
T1 sequence (looked up): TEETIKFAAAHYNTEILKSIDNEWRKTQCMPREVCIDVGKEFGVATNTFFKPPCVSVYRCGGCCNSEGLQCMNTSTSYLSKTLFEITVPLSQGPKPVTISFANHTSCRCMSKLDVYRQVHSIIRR
Test: BLI (ForteBio), monovalent binding, 30 C
Quick reference: Kd of the listed items.
Observation Type: Kd (nM)

1. am63G12-14B11 affinity-matured humanized anti-VEGF C VHH antibody (VHH, also called am63G12.1-14B11) VHH: EVQLVESGGGLVQPGGSLRLSCAASGSSFSPYAMGWYRQAPGKQRELVSATSEGGFTLYADSVKGRFTISRDNSKNTVYLQMNSLRAEDTAVYYCYMHWRGSDPENYWGQGTQVTVSS : 6.21
2. LA49G9 anti-VEGF C VHH antibody (VHH, The prokaryotic product was purified on Ni Sepharose) VHH: QLQLVESGGGLVQPGGSLRLSCAASGSMFSMYAMGWYRQAPGKQRELVAATTSGGSTLYADSVKGRFTISRDNAENTVYLQMNSLKPEDTAVYYCYTYWRGSDPENYWGRGTQVTVSS : 10
3. am63G12-5G8-18B9 affinity-matured humanized anti-VEGF C VHH antibody (VHH, also called Am63G2-5G8-18B9; am63G12.1-5G8-18B9) VHH: EVQLVESGGGLVQPGGSLRLSCAASGSSFSPYAMGWYRQAPGKQRELVSATSSGGFTLYADSVKGRFTISRDNSKNTVYLQMNSLRAEDTAVYYCYTYYREYDPEMYWGQGTQVTVSS : 5.7
4. LA63G12 anti-VEGF C VHH antibody (VHH, The prokaryotic product was purified on Ni Sepharose) VHH: QLQLVESGGGLVQPGGSLRLSCAASGSSFSPYAMGWYRQAPGKQRELVAATTSGGSTLYADSVKGRFTISRDNAKNTVYLQMNSLKPEDTAVYYCYMHWRGSDPENYWGQGTQVTVSS : 16.4

Data origin: patent US20250002570A1
